- SYSTEM_UNDER_TEST: recombinant PHD-bromodomain module of TRIM33 (Homo sapiens)
- Construct: rows headed: TRIM33 modulating activity; unit not given
- Sequence (Q9UPN9 whole entry): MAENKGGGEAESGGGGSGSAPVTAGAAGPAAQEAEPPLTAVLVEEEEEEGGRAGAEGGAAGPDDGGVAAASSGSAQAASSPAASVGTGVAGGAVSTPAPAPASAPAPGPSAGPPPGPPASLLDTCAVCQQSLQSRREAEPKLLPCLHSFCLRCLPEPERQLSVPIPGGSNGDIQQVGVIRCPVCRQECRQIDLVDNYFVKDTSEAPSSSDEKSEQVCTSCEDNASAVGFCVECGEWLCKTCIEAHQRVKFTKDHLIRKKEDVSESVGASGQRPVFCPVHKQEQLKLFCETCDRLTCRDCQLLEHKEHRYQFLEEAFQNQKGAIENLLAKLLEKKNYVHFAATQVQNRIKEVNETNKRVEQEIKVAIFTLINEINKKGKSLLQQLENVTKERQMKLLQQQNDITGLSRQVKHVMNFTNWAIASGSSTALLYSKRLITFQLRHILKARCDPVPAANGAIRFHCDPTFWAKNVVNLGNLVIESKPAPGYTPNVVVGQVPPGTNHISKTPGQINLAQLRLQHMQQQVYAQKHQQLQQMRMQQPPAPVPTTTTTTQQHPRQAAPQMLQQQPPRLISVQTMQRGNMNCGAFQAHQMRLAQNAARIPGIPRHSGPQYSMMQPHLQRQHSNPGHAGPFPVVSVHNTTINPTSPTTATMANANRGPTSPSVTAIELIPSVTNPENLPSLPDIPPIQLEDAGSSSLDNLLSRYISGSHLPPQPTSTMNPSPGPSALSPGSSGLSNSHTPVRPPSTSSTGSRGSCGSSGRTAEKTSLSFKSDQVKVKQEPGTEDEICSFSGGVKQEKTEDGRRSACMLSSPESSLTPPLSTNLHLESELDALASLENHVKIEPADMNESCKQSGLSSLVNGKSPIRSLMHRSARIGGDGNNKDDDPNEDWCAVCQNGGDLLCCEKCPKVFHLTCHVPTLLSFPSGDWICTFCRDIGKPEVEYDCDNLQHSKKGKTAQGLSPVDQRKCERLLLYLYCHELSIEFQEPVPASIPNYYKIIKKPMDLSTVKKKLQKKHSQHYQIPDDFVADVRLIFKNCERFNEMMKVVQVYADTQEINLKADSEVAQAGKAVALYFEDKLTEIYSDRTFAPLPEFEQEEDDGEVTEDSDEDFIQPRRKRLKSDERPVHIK
- RUN_DESCRIPTION: AlphaScreen binding assay, TRIM33 with biotinylated H3K9me3K18ac peptide
- ASSAY_CONTEXT: compounds shown in Table 2a; called TRIM33 IC50 in title of Table 5; unit inferred; read-out: TRIM33 modulating activity
pIC50: −log10 of the molar value.
READOUT_LABEL: pIC50

Examples with their reported pIC50 follow.
Noted for Cc1[nH]cnc1-c1nc2ccc(Br)cn2c1NCCN1CCOCC1 : its pIC50 reads 4.58

Noted for CCCOc1ccn2c(C(C)=O)cc(-c3nc4ccc(C(=O)OC)cn4c3NCCOC)c2c1 : its pIC50 reads 4.11

Noted for CCCOc1ccn2c(C(C)=O)cc(-c3ccccc3S(C)(=O)=O)c2c1 [GS-A, reference compound] : its pIC50 reads 4.29

I. CCCOc1ccn2c(C(C)=O)cc(-c3nc4ccc(C(=O)OC)cn4c3NCCc3ccc(OC)c(OC)c3)c2c1
II. Brc1ccc2nc(-c3ccc4nccn4c3)c(NC3CCCCC3)n2c1
III. COc1ccc(CCNc2c(-c3c[nH]c(C)n3)nc3ccc(Br)cn23)cc1OC
IV. COc1ccc(CCNc2c(-c3c[nH]c(C)n3)nc3cnccn23)cc1OC
V. COc1ccc(CCNc2c(-c3c[nH]c(C)n3)nc3ccccn23)cc1OC
Asked: Place the items in sequence of falling pIC50. Lab note: final answer is the ordered label list.
Given back: V, III, I, II, IV

###

- System: recombinant PHD-bromodomain module of TRIM33
- RUN_DESCRIPTION: AlphaScreen binding assay, TRIM33 with biotinylated H3K9me3K18ac peptide
- ASSAY_CONTEXT: compounds shown in Table 2a
READOUT_LABEL: Ratio of TRIM24 IC50 over TRIM33 IC50

Noted for COCCNc1c(-c2ccc3nccn3c2)nc2ccc(C(=O)OC)cn12 : its Ratio of TRIM24 IC50 over TRIM33 IC50 reads 78.61

A. COc1ccc(CCNc2c(-c3c[nH]c(C)n3)nc3ccccn23)cc1OC
B. COc1ccc(CCNc2c(-c3c[nH]c(C)n3)nc3ccc(Br)cn23)cc1OC
Asked: I'm curious whether A or B has the smaller Ratio of TRIM24 IC50 over TRIM33 IC50 number. Which is it? Field: selected label. Fill in the label of the entry you choose.
Given back: B
(B: 18.38, A: 32.77)

I. CCCOc1ccn2c(C(C)=O)cc(-c3nc4ccc(C(=O)OC)cn4c3NCCOC)c2c1
II. CCCOc1ccn2c(C(C)=O)cc(-c3nc4cnccn4c3NCCOC)c2c1
Asked: Which record would sort first by descending Ratio of TRIM24 IC50 over TRIM33 IC50, I or II ? Field: selected label. Fill in the label of the entry you choose.
Given back: I

I. COC(=O)c1ccc2nc(-c3nc[nH]c3C)c(NCCc3ccc(OC)c(OC)c3)n2c1
II. Cc1[nH]cnc1-c1nc2ccc(Br)cn2c1NCCN1CCOCC1
III. COc1ccc(CCNc2c(-c3nc[nH]c3C)nc3cnccn23)cc1OC
IV. COC(=O)c1ccc2nc(-c3nc[nH]c3C)c(NC3CCCCC3)n2c1
Asked: Place the items in sequence of falling Ratio of TRIM24 IC50 over TRIM33 IC50. Lab note: final answer is the ordered label list.
Given back: III, I, IV, II

I. Brc1ccc2nc(-c3ccc4nccn4c3)c(NCCN3CCOCC3)n2c1
II. CCCOc1ccn2c(C(C)=O)cc(-c3nc4ccc(C(=O)OC)cn4c3NCCc3ccc(OC)c(OC)c3)c2c1
Asked: I'm curious whether I or II has the smaller Ratio of TRIM24 IC50 over TRIM33 IC50 number. Which is it? Field: selected label. Fill in the label of the entry you choose.
Given back: I
